Data origin, for the record: the DeepSol protein solubility set

# assay name: soluble on expression in E. coli; label from the status in PepcDB or PDB records
endpoint: soluble on expression in E. coli

construct_sequence=MSRHPLKIVIAGAGIGGLAAAACLKAAGFEVELYERARELRAVGSALSLMPNALTALERVGVRPDLTRAQAFDSLRFLTRRGRPIRAIDFGGLARQLGQPSLAIHRASLQQALLEQARDCRIELGVSATGYLRHADGEGVTVLCSDGREVHADVLIGADGFNSAIRATMTGPERPTDWHYVIWRATPAFRHPKVTPGYVAHYWGRGQRFGLADIGEGNVYWWGTRNMPAEQAKDWRGGKAGIQRLYAGWADEVQAVIEATPEADISSLPAQDRPFLERWGDGPVTLLGDAAHPMLTSLGQGAAIAIEDAAVLAHCLATIDDPQAALRAYENRRRDRARAMVETSRALSRIEQLEHPLRTVARDLYFRFAPERTFARQNELALTFPGVELEHHHHHH endpoint="soluble on expression in E. coli" data_value="not soluble"
construct_sequence=MAGDPMKNILIFPFLSISTGHHHVADALQAELESQGLAAEKIDIFSHSYRRLEKLSSVAYLKWIQYFPKTYSGIYRLLACGEFQHDKRYFMYECVFTQQMRHILQEKQPDIAFCTHALPSYLLNRLKPEYPNLTVVNVYTDFFVNQLWGRKNIDYHFVPSTEVKKQLISEGIDQNNIYLTGIPVHQNFEMESADTLQHHPPYTIIITGGSMGVGGILKWVQELSPGGKILYKILCGRNEKLYSYVKSLHHPLIEAIPYLHSKAEMNRLYEQATGIMTKPGGVTISECLQKRLPVFIYHALPGQEEMNLNLLHERKLVTDMRNWDMQKAEEYIAAFFQSNEQMKEYKKHVNGYLGEMSDRKIKDVLKRIIWKQKNTLLKLEHHHHHH endpoint="soluble on expression in E. coli" data_value="not soluble"
construct_sequence=AESGFRQHITANGESGFKAEPDRYHLYLSYACPWACRTLIMRKLKGLEKIISVSFSDPVMGKNGWSYGESGNETADHINHIHYLKELYLVARKDYTGRVTVPVLWDKKKKTIVNNESSEIMRMLNSEFNAFSSTDHDYYPKQWRQKIDEINQLVYENINN endpoint="soluble on expression in E. coli" data_value="not soluble"
